Assay Comment: clinical
Assay Conditions: both, human, plasma, oral
Assay Endpoint: Tmax

- CC(NC(=O)OC[n+]1cccc(C(=O)NCCO[N+](=O)[O-])c1)C1CCCCC1 (stereo in doubt): 0.5 to 1.5 h

---

Assay Comment: clinical
Assay Conditions: both, human, plasma, oral, 10 mg
Assay Endpoint: Cmax

* CC(NC(=O)OC[n+]1cccc(C(=O)NCCO[N+](=O)[O-])c1)C1CCCCC1 (stereo in doubt) | > 1.01 ng/mL

---

Assay Comment: Phase I study Part 2, multiple ascending doses (MAD), BID oral fasted
Format: in vivo, human
Assay Conditions: both sexes, human, plasma; multiple oral doses 40 mg for 5 days; read-out: median Tmax
Assay Endpoint: Tmax at 5 days (h)

• CC(NC(=O)OC[n+]1cccc(C(=O)NCCO[N+](=O)[O-])c1)C1CCCCC1 (stereo in doubt) [Compound 8] = 1.5
